# Tested on: HEK-293T
# Experimental Protocol: Multiplex assay against HEK293T
# Type: toxicity, cell-based
# Recorded Conditions: human, 12 h, 1 µM, compound concentration 1 uM, replicate 2
Each item that follows carries a reported Population Apoptotic (%).

Compound: Cc1c(Nc2ccc(S(=O)(=O)N3CCN(C)CC3)cc2F)nc2ccc(-c3cnn(C4CC4)c3)cn2c1=O
Target Or System: HEK-293T
Population Apoptotic (%): 10%

Compound: CS(=O)(=O)N1CCCC(NC(=O)[C@H](CCC2CCCCC2)NC(=O)c2ccc(CNC(=O)c3cnc4ccccn34)cc2)C1 (some centres undefined) [SR-302]
Target Or System: HEK-293T
Population Apoptotic (%): 17% [middle of 4 runs]

Compound: NC(=O)c1ccc2nc(-c3ccc(C4(N)CCC4)cc3)c(-c3ccccc3)n2n1 [BAY-1125976]
Target Or System: HEK-293T
Population Apoptotic (%): 10%

Compound: CC[C@H](Nc1ncnc2[nH]cnc12)c1nc2cccc(F)c2c(=O)n1-c1ccccc1 [IDELALISIB]
Target Or System: HEK-293T
Population Apoptotic (%): 10%
